Tested on: 2Sp-muMax20 (muMax20 with two 2,6-bis(methyl)pyridine Cys staples)
Assay: PBM 8-mer E-score (E-score (rank enrichment, -0.5 to 0.5)); higher = stronger preferential binding
Over roughly 33,000 sequences, “E-score (rank enrichment, -0.5 to 0.5)” has its median near -0.0043; the highest 2% begin near 0.24. This excerpt belongs to a sample that is enriched for the highest values.
Could you please report measured PBM 8-mer E-score for the items listed next?
Answers are plain numbers.

See these solved cases before continuing.
| input sequence | subject of test | PBM 8-mer E-score |
| --- | --- | --- |
| CATCCCCA | 2Sp-muMax20 (muMax20 with two 2,6-bis(methyl)pyridine Cys staples) | 0.145 |
| CCTCCCCC | 2Sp-muMax20 (muMax20 with two 2,6-bis(methyl)pyridine Cys staples) | -0.0661 |
| AATGAATC | 2Sp-muMax20 (muMax20 with two 2,6-bis(methyl)pyridine Cys staples) | -0.0131 |
| TCCGAAAA | 2Sp-muMax20 (muMax20 with two 2,6-bis(methyl)pyridine Cys staples) | -0.0537 |
| ATTCGTCA | 2Sp-muMax20 (muMax20 with two 2,6-bis(methyl)pyridine Cys staples) | 0.0337 |
| AAGCATGA | 2Sp-muMax20 (muMax20 with two 2,6-bis(methyl)pyridine Cys staples) | 0.0552 |
| TATAGAGA | 2Sp-muMax20 (muMax20 with two 2,6-bis(methyl)pyridine Cys staples) | -0.0265 |
| AAATGGCA | 2Sp-muMax20 (muMax20 with two 2,6-bis(methyl)pyridine Cys staples) | 0.155 |
| CAACCAAC | 2Sp-muMax20 (muMax20 with two 2,6-bis(methyl)pyridine Cys staples) | -0.132 |
| ACCCCGGC | 2Sp-muMax20 (muMax20 with two 2,6-bis(methyl)pyridine Cys staples) | -0.00709 |

Give PBM 8-mer E-score for each of the items listed below.
1. GATGAATA
2. CAATGGCG
3. AAGCATGC
4. ATGCTTTC
5. GAGCATGA
6. AATCCCCA
7. AAGCATGG

Solution:
1. 0.201
2. 0.02
3. 0.309
4. 0.125
5. 0.154
6. 0.161
7. 0.221
